- assay_info: Dynamic light scattering of lipid nanoparticles (size, PDI)
- Format: physicochemical
- experimental_conditions: LNP with cationic lipid CL-B
attribute_measured: PDI
Output spec: single numeric token, no unit.

Worked set:
What the record says about CCCCCCCCC(CCCCCCCC)OC(=O)CCCCCCC(=O)OCC(COP(=O)(O)OCCN)OC(=O)CCCCCCC(=O)OC(CCCCCCCC)CCCCCCCC (stereo not drawn) [Compound 6] : PDI is 0.049

What the record says about CCCCCCCCCCC(CCCCCCCCCC)OC(=O)CCCCCCC(=O)OCC(COP(=O)(O)OCCN(C)C)OC(=O)CCCCCCC(=O)OC(CCCCCCCCCC)CCCCCCCCCC (stereo not drawn) [Compound 19] : PDI is 0.095

Please examine the following record next.
What the record says about CCCCCCCCOC(=O)CCCCCCCC(=O)OC(COC(=O)CCCCCCC(=O)OC(CCCCCCCC)CCCCCCCC)COP(=O)(O)OCCN(C)C (stereo not drawn) [Compound 11] : PDI is 0.066
